SYSTEM TESTED: Potassium channel subfamily K member 9 (Homo sapiens)
TEST SUMMARY: KCNK9 potassium channel inhibitors, primary screen, HEK293 cells, thallium flux (AID 488922)
COND: HEK293 KCNK9, FluxOR thallium flux fluorescence, at 10 µM
Among all 310,000 compounds or so, about 3,800 (1.2%) were called active.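 The calls were made as follows: active = ratio B-score over 3 SD below the library mean, with starting fluorescence within 5 SD of its mean; inactive = the rest, inconclusive results apart.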 What follows is part of a selection rich in actives, with near analogues and random picks from the rest.
Pick one and only one: t for active, f for inactive

// below: answered molecules
CCN(CC)C(=O)Oc1ccc(NC(=O)N2CCOCC2)cc1 = f
CCOP(=S)(OCC)C(O)CCCCCn1c(=O)c(F)cn(C2CCCO2)c1=O (stereo not drawn) = f
CCC(=NCCCO)c1c(O)n(-c2ccc(OC)cc2)c(=O)[nH]c1=O = f
CC1=C2C(=O)C3C(CC=C4CC(OC5OC(O)C(O)C(O)C5CO)CCC43C)C2CCC12OC1CC(C)CNC1C2C (stereo not drawn) = f
CC(C)(C)c1ccc(CN2C(=O)CN=C(c3ccccc3)c3ccccc32)cc1 = t
O=C1CC(=O)N(Cc2ccccc2)C(=O)N1CCCCCCN1C(=O)CC(=O)N(Cc2ccccc2)C1=O = f
Cc1ccc(-c2nc3ccccc3c(=O)n2-c2ccc(Br)cn2)cc1 = f

Lab note: next molecule to report on.
### Prompt Which outcome was assigned to CCN1CCN(c2nc3c(c(=O)[nH]2)CCC3)CC1 in this test?
### Response f
